The reported measurements were obtained from the domain aggregation screens of Martell et al. (2025).

- ASSAY: soluble fraction after stress (log2 fold change); higher = more stays soluble; pooled small domains, quantitative proteomics
- COND: stress: 50 degC
I'd appreciate it if you could label each record using soluble fraction (log2) and these ranges: low = under -0.8, intermediate = from -0.8 up to -0.1, high = -0.1 and over

SEQ STRING | LABEL CLASS
HMGELDPKIIAQINTFLQGITKLIEHPGNKDAKKTALGALHKLTFDQNITANFGKQLGQLDQVIQSSEET | high
HMSDLPLLEHARQNLSDDEFRILELTTIYGYRRVEVAKMLGEPISTINWKYNKLIKKVKTFYGEVYN | low
HMNREIVVYITGAVDNPGLYRLPLDSRLDDVLKLAVLSTNADREVLNPAQKLKDGQKIVVPYIVE | intermediate
HMSRDYKTELQERLQVNGPVKIEYQVIAEDESKPSFKVQLLVNDKKISEGQGRNKKAAEQQAAQAAL | high
HMTALSAREHEVLQLITRGYTADEIAAMLQISRHTALTYVRRIYSKLKVNSKAEAIFEVRQR | intermediate
HMGSLKEKIVLLEKLYQQNPSEEIKLLLINTYQLNHQYIQARKLFFTLTPEQKEKLPLASEFLIFL | low
HMGTPKMPLSLYLSMVENLRSLKRFALVNQQVKDGFVFFNDVAGIKRLQELLNYHNTGEKPSE | low
HMQSAEMTLDREGQPVQVRVELTGNEARITFLSDQEQTREALDAGMAQLRELLEQQGMVLAGVTV | high
HMLRVVSTRQAFDIVRGWADAHPQDPEHNKTLDELEELAKKEVWDDWSRTNEIAERLNALLVSIGANVRTA | intermediate
HMNATLEQLTQREREIAVLMAEGLTNAQIGSRLNVSMASVKAHLSHIFTKLGVDNRVSAAMMVL | intermediate
HMTRAEVQALLEKQAKDFEVEVVHRGWKKTVQTPEFAGWYSQQPAEIKALAESDDPAVAIRMLDLFSGTK | high
HMFNLFPHLSVLRNITLAPQKVKGLNRSESNEIAMSLLERVGIPEQSDKFPSQLSGGQQQRVAIARALAM | intermediate
HMSIGLEGFVGKLGISTSDLRPSGWGEFDAKKLFVVTEGEFVDRKEKIEILSVDGNRILVRKIS | intermediate
HMDASFTYSLETHPAGVLVRVDGLEYETPFSILLPQGVHRLEVAGEERFFYLSETTHQFLEID | low
HMPAERLSMRKIYEILRLKYGHGLSNREVALSVSVSRSTVADYLLRAQAAGLSWPLPDGLDETGLEQRLFP | low
HMTVLVPNLTGKTLLEAEILLDQAGLKKGDVYSESNKNVPKDHIIRQKPAPNTKIQKGATIDIYRSLGPE | high
HMIPEKEISYMMPDGFMPKELKIIHITESGRKQIYSAAHKPLDLVNVKAPFVPNTKVQIYINDVPIEELKI | intermediate

---

- ASSAY: soluble fraction after stress (log2 fold change); higher = more stays soluble; pooled small domains, quantitative proteomics
- COND: stress: 50 degC
Would you mind labelling by soluble fraction (log2)? At or over -0.2 is class 1, under is class 0.

SEQ STRING | LABEL CLASS
HMQSLAAKINGYIVAQRTSIAAIAKEIGYSRVTVSRYLAGKYDSDPTGIEAKLAAFLAGQTGEE | class 0
HMTQEAMRSLRKSLQNLSSRQQVIFMLRHYEGLALKEIAEHLGLETGTVKAHLHRAVTQLRKDLVE | class 0
HMRWAAIMGREVAAHSTPESLVEGKLHIRTDTTAWATQLRLMSADIVRRLNEVLGEGTVLEVDVRG | class 0
HMLADIGGRIADLRREVGLTQGELAEKADISVVHLSNIELGKKTPGLSTLIRIAEALDVATDWILQA | class 0
HMSFPLKRGSKGNRVTQLQNALVKKFGASILPKYGVDGMFGKEVEAALVRAKLPTSINESTYNSFV | class 1
HMRPFAMNLLEKHKADIEVWLKHPNMTNTQIKRLLEELGTSVSVSSIDRFISTSFPKLPKHT | class 1
HMKFPPASDIRRMRKAIDVTQTELAKQSGVSQSTIAKIERGRISASYDTVVKLFETLDEMAK | class 1
HMKGVTVDGDNITVDGEKQTLISVNKNLDGDVVSYTYRTADGKLRTSRNVEVAQEINKQQLLKSIDAQ | class 1
HMDINMELGKNIRRLRKLNNLTQQSLANQMNRSKTLIALWEKGERDPSSIDLKRLSEIFNVRADDIIG | class 0
HMNASITVPDVRNLTVKQASEQLLASGFTPIPYAATKDGVGNDIVYAQDPPPSVLARSGDQITITYNPA | class 1
HMAPDGIEDKEGWLKVLPMITNLSIQMQNLQARGMDYEHIRNLLHETLLRYDDRIDSNLFIPNV | class 1
HMGPLDIAQLKSDFLGGDAQLARRAWDQLATKAGDEGRDFLISSLGSSDPQIRNRVALGIHES | class 1
HMKAGEDAVQKAVLEAVAESAAAVADYKAGSERALNFIVGKVMKKTRGKASAAEVHRLVREEVDR | class 1
HMGQLIGKEEAKQIALSRAGVAEGDISRYESELDTDDGKTKYEISFHVGRVEYDIEINAVTGAVEKFEMDN | class 1
HMGLDQNTLDRVDDINDTLATGIEIGPETRGTIEELNETLANGLKAGFDEETLARVDELLRVVEDGLK | class 1
HMAPLATLEADGNGAVKLPNLAGHAIREVAAALGGANLALIPIGSGTSWKQNPAPGTILHKGDTVTVYF | class 1

---

- ASSAY: soluble fraction after stress (log2 fold change); higher = more stays soluble; pooled small domains, quantitative proteomics
- COND: stress: 50 degC
Note to self: values exactly at -0.3 are TRUE. So soluble fraction (log2) at or above -0.3 is TRUE, below is FALSE.

SEQ STRING | LABEL CLASS
HMQETIDVAALRVGMFVHLDLGWLAHPFPLSSFRISSEDQISTIRALGLKRVRWSSQHSELG | FALSE
HMGQAAHYEGVKGDGESDTDVISRVLTAAGAEAQKDDIFVVKELIAGGKYSYTAYVYDGSVWAAM | TRUE
HMPLITAIELDSISARSFQFNTQSGSTYFIEGSTDLKSWDVIAEVKATDSTTTYEDHRKIYHEAYFYRVRL | FALSE
HMNGSVLVTGGSVWIRAGASKETDGLGIVHKGDVLKRSGSDASGWRGVVYEGQNAFISAKYSSI | FALSE
HMQFLKPQDVLFLLKLVVLKGPASIFPAVPESLGLSKAEVHNSAKRVRGARLLPHDSWNPLRKNLLEFL | TRUE
HMQSDQLSDREREILRLIGSGRTNQEISQELQVSGSTVRTHLQHILDKLGLENRNQAVLYAIRIGLAAPP | TRUE
HMEIPMRDKLKTYIDYLFAGAPQTAATAETKAEILQNTLDKYDDLIAEGKTPEAAYSLAVSGIGDLGDF | TRUE
HMANHIAAIHVLKSKLQMSDSDYRVLITGLTQKASTKDMSDIERQRVRDHMQGLAERMGVVK | TRUE
HMGVREIIVQFLEQFDKPKSVQEIVEYVLRYRNTTENSIRSTMYSGSQFRQFDNGYFGLSDKSYPNEYIYA | FALSE
HMENLVPVVVATTNIEPRTQITDAMVKVEQIPALGRNESMLEDPALVVGGYATGKIYAGQSFIQPMVSK | TRUE
HMVPLSPRFFDIFRKRKDLTRQNVDVYFRDHPTEITAFERYIKGLVSQSYIPAERADALLLVASQYKAK | FALSE
HMQPQLFRVIADDGLNIRSGPGPEYPPVAPMLRKGTQVELLQAGDRWSKVEVVGSTDVEGWVNQRYLQAV | TRUE
HMPPTSADGIEKYLASGMIRGVGPVYAKKLVSAFGDKVFDIIEAAPHQLQEVEGIGRVRAASILAAWAEQ | TRUE
HMSINTIIAKNLNRLRNERNLSLGQLAELSGVSKVMLSQIEKGDSNPTVNTIWKIASGLNVPYTAILDQP | TRUE
HMSNSGFVKNNGKTEFYDASGRQAKSSWINISGKWYYFDLNGTMVTGWQRISNKWYYFLEDGSK | TRUE
HMSSLTPRETEVLSRMAQGDANTSIAERLVITEKAVQKHINAIFAKLGLAEEPTSARRVLAVLAFLR | FALSE
HMTVEVFQSLVQTFREMSPRKAASILEELKRDLAVEILLHMPEDGVAAILARMDPARAARLTEQLALEKD | FALSE

---

- ASSAY: soluble fraction after stress (log2 fold change); higher = more stays soluble; pooled small domains, quantitative proteomics
- COND: stress: 50 degC
EXPERIMENTAL ENDPOINT: soluble fraction (log2)

SEQ STRING | EXPERIMENTAL ENDPOINT | DATA VALUE
HMDGEFINLKNRAGTEIEARILNYQNGQVKLERKDGVTFVVSISMFDAKSVIAINHKIAEIIDT | soluble fraction (log2) | -1.37
HMDTIYPFNPNFIDDYKGYVLGLNTNEIDRLLKYRSKGNWINSAEDFKKVTGIDDALLNKLSKSFKFPDWL | soluble fraction (log2) | -1.44
HMKKNLELGLLPHEVKSILGEPDFIDTITDIDGIRYDMWSYTKLNVTKRLYFEDLFLVRMEE | soluble fraction (log2) | -1.43
HMLPSELLAQQRIVVQPGHNLWRIARATYGRGARYTVIYQANREQIADPNRIFPGQVFALPAA | soluble fraction (log2) | -0.121
HMRTITIDDSIAGKRLDEALTLLGAESSRTKVKLLFSSPNGVLVNGEKEKPHYRVEAGDVIQFGELPKK | soluble fraction (log2) | 0.271
HMQISDESSIAKIADEVISEFPSQVSEFRSGKEKVLQFLIGQVMKKTKGKANPQITAKILREKLS | soluble fraction (log2) | 0.119
HMEVNLEPLIALLRKHRDLDLSGYSKSTLGRRITYFMGLNKISSIDELGRRLAEDDLLFQEFLDKLT | soluble fraction (log2) | -0.0655
HMGDAATVFRDHYNINSAAQAQAALDRKEALWEQPNPWRDSDNREVFDWAAQTVKDRFDSGKYKPK | soluble fraction (log2) | 0.129
